Reported logD values for the following compounds.
# TEST_METHOD_NOTES: Determination of logD (1-octanol / phosphate buffer pH 7.4)
# Format: physicochemical
# PARTICULARS: 1-octanol/phosphate buffer, pH 7.4, pH 7.4, 1-octanol/phosphate buffer; read-out: Log D, pH 7.4

STRUCTURE_AS_SMILES	logD
CO[C@H]1CCN(C/C=C/C(=O)N2CCN(c3nc(OC[C@@]45CCCN4C[C@H](F)C5)nc4c(F)c(-c5cccc6ccc(F)c(F)c56)ncc34)C[C@@H]2CC#N)C1	2.01
N#CC[C@H]1CN(c2nc(OC[C@@]34CCCN3C[C@H](F)C4)nc3c(F)c(-c4cccc5ccc(F)c(F)c45)ncc23)CCN1C(=O)/C=C/CN1[C@@H]2CC[C@H]1COC2	3.07
N#CC[C@H]1CN(c2nc(OC[C@@]34CCCN3C[C@H](F)C4)nc3c(F)c(-c4cccc5ccc(F)c(Cl)c45)ncc23)CCN1C(=O)/C=C/CN1CC2CC(C1)O2	2.92
Cc1noc(/C=C/C(=O)N2CCN(c3nc(OCC45CCCN4CCC5)nc4c3CCN(c3cccc5cccc(Cl)c35)C4)C[C@@H]2CC#N)n1	2.9
N#CC[C@H]1CN(c2nc(OC[C@@]34CCCN3C[C@H](F)C4)nc3c(F)c(-c4cccc5ccc(F)c(F)c45)ncc23)CCN1C(=O)/C=C/CN1CCSCC1	3.48

====

# STUDY_TARGET: KRAS G12C (GMPPNP-loaded) and cRAF (Ras-binding domain) interaction (Homo sapiens (Human), UniProt P01116, C118S/C51S/C80L/G12C)
# Sequence (P01116 other isoform, or with tags, fused parts or gaps G12C/C51S/C80L/C118S): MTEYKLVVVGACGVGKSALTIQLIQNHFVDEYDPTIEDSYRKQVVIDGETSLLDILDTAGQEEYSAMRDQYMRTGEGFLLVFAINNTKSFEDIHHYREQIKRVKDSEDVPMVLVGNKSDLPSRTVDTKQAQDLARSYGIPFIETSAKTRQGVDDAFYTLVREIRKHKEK
# TEST_METHOD_NOTES: Inhibition of KRAS G12C and cRAF binding (AlphaScreen)
# PARTICULARS: KRAS G12C loaded with GMPPNP, cRaf RBD, 2 hours preincubation; read-out: Raf-1 RBD K-Ras IC50
pIC50: −log10 of the molar value.
EXPERIMENTAL_ENDPOINT: pIC50

STRUCTURE_AS_SMILES	TEST_RESULT
Cc1nccc(/C=C/C(=O)N2CCN(c3nc(OC[C@@]45CCCN4C[C@H](F)C5)nc4c(F)c(-c5c(C)cc(F)c6[nH]ncc56)ncc34)C[C@@H]2CC#N)n1	6.30 to 7.00
N#CC[C@H]1CN(c2nc(OC[C@@]34CCCN3C[C@H](F)C4)nc3c(F)c(-c4cccc5ccc(F)c(Cl)c45)ncc23)CCN1C(=O)/C=C/CN1CCOCC1	> 8.00
Cc1nsc(/C=C/C(=O)N2CCN(c3nc(OC[C@@]45CCCN4C[C@H](F)C5)nc4c(F)c(-c5nc(N)cc(C)c5C(F)(F)F)ncc34)C[C@@H]2CC#N)n1	> 8.00

====

# STUDY_TARGET: KRAS G12C (GMPPNP-loaded) and PI3Ka (Ras-binding domain) interaction (Homo sapiens (Human), UniProt P01116, C118S/C51S/C80L/G12C)
# TEST_METHOD_NOTES: Inhibition of KRAS G12C and PI3Ka binding (AlphaScreen)
# PARTICULARS: KRAS G12C loaded with GMPPNP, PI3Ka RBD, 2 hours preincubation; read-out: PI3K RBD K-Ras IC50
pIC50: −log10 of the molar value.

MOLECULE	pIC50
CO[C@H]1CCN(C/C=C/C(=O)N2CCN(c3nc(OC[C@@]45CCCN4C[C@H](F)C5)nc4c(F)c(-c5cccc6cccc(F)c56)ncc34)C[C@@H]2CC#N)C1 [Compound 222]	> 8.00
N#CC[C@H]1CN(c2nc(OC[C@@]34CCCN3C[C@H](F)C4)nc3c(F)c(-c4cccc5cccc(F)c45)ncc23)CCN1C(=O)/C=C/CN1C[C@@H]2C[C@H]1CO2 [Compound 219]	> 8.00
CO[C@@H]1CCN(C/C=C/C(=O)N2CCN(c3nc(OC[C@@]45CCCN4C[C@H](F)C5)nc4c(F)c(-c5cccc6ccc(F)c(Cl)c56)ncc34)C[C@@H]2CC#N)C1 [Example 85]	> 8.00

====

# TEST_METHOD_NOTES: Determination of logD (1-octanol / phosphate buffer pH 7.4)
# Type: physicochemical
# PARTICULARS: 1-octanol/phosphate buffer, pH 7.4, pH 7.4, 1-octanol/phosphate buffer; read-out: Log D, pH 7.4
Reported logD values for the following compounds.

STRUCTURE_AS_SMILES	logD
N#CC[C@H]1CN(c2nc(OC[C@@]34CCCN3C[C@H](F)C4)nc3c2CCN(c2cccc4cccc(Cl)c24)C3)CCN1C(=O)/C=C/c1nc(C2COC2)no1	2.69
Cc1cc(/C=C/C(=O)N2CCN(c3nc(OC[C@@]45CCCN4C[C@H](F)C5)nc4c(F)c(-c5cccc6cccc(F)c56)ncc34)C[C@@H]2CC#N)nc(C)n1	4.02
Cc1nsc(/C=C/C(=O)N2CCN(c3nc(OCC45CCCN4CCC5)nc4c(F)c(-c5cccc6cccc(Cl)c56)ncc34)C[C@@H]2CC#N)n1	2.39

====

# TEST_METHOD_NOTES: Determination of kinetic solubility (pH 7.4)
# Type: physicochemical
# PARTICULARS: phosphate buffer, pH 7.4, aqueous buffer, kinetic from dmso stock, 50 mM phosphate buffer pH 7.4, read-out: Ksol, pH 7.4
The label depends only on solubility kinetic at 2 h: Fulfilled if it is at least 90 µg/mL, Not fulfilled if it is smaller.

COMPOUND	CLASS
C#Cc1c(F)ccc2cccc(-c3ncc4c(N5CCN(C(=O)/C=C/CN6CC7CCC(C6)O7)[C@@H](CC#N)C5)nc(OC[C@@]56CCCN5C[C@H](F)C6)nc4c3F)c12 [Compound 285]	Not fulfilled
N#CC[C@H]1CN(c2nc(OC[C@@]34CCCN3C[C@H](F)C4)nc3c(F)c(-c4nc(N)cc5cccc(F)c45)ncc23)CCN1C(=O)/C=C/CN1CCOCC1 [Compound 60]	Fulfilled
N#CC[C@H]1CN(c2nc(OC[C@@]34CCCN3C[C@H](F)C4)nc3c(F)c(-c4cccc5cccc(Cl)c45)ncc23)CCN1C(=O)/C=C/c1nc(C2CC2)ncc1F [Compound 158]	Not fulfilled
Cc1cc(/C=C/C(=O)N2CCN(c3nc(OC[C@@]45CCCN4C[C@H](F)C5)nc4c(F)c(-c5cccc6ccc(F)c(C)c56)ncc34)C[C@@H]2CC#N)nc(C)n1 [Compound 105]	Not fulfilled
Cc1nccc(/C=C/C(=O)N2CCN(c3nc(OC[C@@]45CCCN4C[C@H](F)C5)nc4c(F)c(-c5nc(N)cc(C)c5C(F)(F)F)ncc34)C[C@@H]2CC#N)n1 [Compound 145]	Fulfilled
CO[C@H]1CCN(C/C=C/C(=O)N2CCN(c3nc(OC[C@@]45CCCN4C[C@H](F)C5)nc4c(F)c(-c5cccc(Cl)c5C5CC5)ncc34)C[C@@H]2CC#N)C1 [Compound 287]	Fulfilled
N#CC[C@H]1CN(c2nc(OC[C@@]34CCCN3C[C@H](F)C4)nc3c(F)c(-c4cccc5ccc(F)c(Cl)c45)ncc23)CCN1C(=O)/C=C/CN1CC2CCC(C1)O2 [Example 78]	Not fulfilled
N#CC[C@H]1CN(c2nc(OC[C@@]34CCCN3C[C@H](F)C4)nc3c(F)c(-c4cccc(Cl)c4C(F)(F)F)ncc23)CCN1C(=O)/C=C/CN1C[C@H]2C[C@@H]1CO2 [Compound 294]	Fulfilled

====

# TEST_METHOD_NOTES: Determination of logD (1-octanol / phosphate buffer pH 7.4)
# Assay type: physicochemical
# PARTICULARS: 1-octanol/phosphate buffer, pH 7.4, pH 7.4, 1-octanol/phosphate buffer; read-out: Log D, pH 7.4

COMPOUND	logD
N#CC[C@H]1CN(c2nc(OC[C@@]34CCCN3C[C@H](F)C4)nc3c(F)c(-c4cccc(F)c4C(F)(F)F)ncc23)CCN1C(=O)/C=C/CN1[C@@H]2CC[C@H]1COC2	2.54
N#CC[C@H]1CN(c2nc(OCC34CCCN3CCC4)nc3c2CCN(c2cccc4cccc(Cl)c24)C3)CCN1C(=O)/C=C/CN1C[C@@H]2C[C@H]1CO2	2.06
N#CC[C@H]1CN(c2nc(OC[C@@]34CCCN3C[C@H](F)C4)nc3c(F)c(-c4cccc5ccc(F)c(Cl)c45)ncc23)CCN1C(=O)/C=C/c1ccnc(C2CC2)n1	4.2
N#CC[C@H]1CN(c2nc(OC[C@@]34CCCN3C[C@H](F)C4)nc3c(F)c(-c4cccc5ccc(F)c(Cl)c45)ncc23)CCN1C(=O)/C=C/CN1CCCOCC1	3.25
Cc1nccc(/C=C/C(=O)N2CCN(c3nc(OCC45CCCN4CCC5)nc4c(F)c(-c5cccc6cccc(Cl)c56)ncc34)C[C@@H]2CC#N)n1	1.93
N#CC[C@H]1CN(c2nc(OC[C@@]34CCCN3C[C@H](F)C4)nc3c(F)c(-c4cccc5cccc(Cl)c45)ncc23)CCN1C(=O)/C=C/CN1CCCOCC1	2.6
C[C@@H]1CN(C/C=C/C(=O)N2CCN(c3nc(OC[C@@]45CCCN4C[C@H](F)C5)nc4c(F)c(-c5cccc6cccc(Cl)c56)ncc34)C[C@@H]2CC#N)C[C@@H](C)O1	3.61
N#CC[C@H]1CN(c2nc(OCC34CCCN3CCC4)nc3c(F)c(-c4cccc5cccc(Cl)c45)ncc23)CCN1C(=O)/C=C/c1nc([C@H]2C[C@@H]2F)no1	2.91
C[C@@H]1CN(C/C=C/C(=O)N2CCN(c3nc(OC[C@@]45CCCN4C[C@H](F)C5)nc4c(F)c(-c5cccc6ccc(F)c(F)c56)ncc34)C[C@@H]2CC#N)C[C@H](C)O1	2.53
N#CC[C@H]1CN(c2nc(OCC34CCCN3CCC4)nc3c2CCN(c2cccc4cccc(Cl)c24)C3)CCN1C(=O)/C=C/CN1CC2C(C1)C2(F)F (stereo partly drawn)	3.13
N#CC[C@H]1CN(c2nc(OCC34CCCN3CCC4)nc3c2CCN(c2cccc4cccc(Cl)c24)C3)CCN1C(=O)/C=C/c1nc(C(F)(F)F)no1	4.32
N#CC[C@H]1CN(c2nc(OC[C@@]34CCCN3C[C@H](F)C4)nc3c2CCN(c2cccc4ccc(F)c(Cl)c24)C3)CCN1C(=O)/C=C/CN1CCOCC1	3.8
N#CC[C@H]1CN(c2nc(OC[C@@]34CCCN3C[C@H](F)C4)nc3c(F)c(-c4cccc(Cl)c4C4CC4)ncc23)CCN1C(=O)/C=C/CN1C[C@@H]2C[C@H]1CO2	2.85
N#CC[C@H]1CN(c2nc(OC[C@@]34CCCN3C[C@H](F)C4)nc3c(F)c(-c4cccc5cccc(Cl)c45)ncc23)CCN1C(=O)/C=C/CN1CCN(C2COC2)CC1	2.5
N#CC[C@H]1CN(c2nc(OC[C@@]34CCCN3C[C@H](O)C4)nc3c(F)c(-c4cccc5ccc(F)c(Cl)c45)ncc23)CCN1C(=O)/C=C/CN1CCOCC1	1.52
N#CC[C@H]1CN(c2nc(OC[C@@]34CCCN3C[C@H](F)C4)nc3c(F)c(-c4cccc5cccc(Cl)c45)ncc23)CCN1C(=O)/C=C/CN1C[C@H]2CC[C@@H]1CO2	2.81
N#CC[C@H]1CN(c2nc(OCC34CCCN3CCC4)nc3c2CCN(c2cccc4cccc(Cl)c24)C3)CCN1C(=O)/C=C/CN1C[C@H]2COC[C@H]2C1	2.44
C[C@@H]1CN(C/C=C/C(=O)N2CCN(c3nc(OC[C@@]45CCCN4C[C@H](F)C5)nc4c(F)c(-c5cccc6ccc(F)c(F)c56)ncc34)C[C@@H]2CC#N)C[C@@H](C)O1	2.94
Cc1nsc(/C=C/C(=O)N2CCN(c3nc(OCC45CCCN4CCC5)nc4c3CCN(c3cccc5cccc(Cl)c35)C4)C[C@@H]2CC#N)n1	3.55
Cc1noc(/C=C/C(=O)N2CCN(c3nc(OCC45CCCN4CCC5)nc4c(F)c(-c5cccc6cccc(Cl)c56)ncc34)C[C@@H]2CC#N)n1	2.15
N#CC[C@H]1CN(c2nc(OCC34CCCN3CCC4)nc3c2CCN(c2cccc4cccc(Cl)c24)C3)CCN1C(=O)/C=C/c1nc(C2COC2)no1	2.72
